study_target: Tyrosine-protein kinase JAK2 (Homo sapiens, UniProt O60674)
Sequence (O60674 whole entry): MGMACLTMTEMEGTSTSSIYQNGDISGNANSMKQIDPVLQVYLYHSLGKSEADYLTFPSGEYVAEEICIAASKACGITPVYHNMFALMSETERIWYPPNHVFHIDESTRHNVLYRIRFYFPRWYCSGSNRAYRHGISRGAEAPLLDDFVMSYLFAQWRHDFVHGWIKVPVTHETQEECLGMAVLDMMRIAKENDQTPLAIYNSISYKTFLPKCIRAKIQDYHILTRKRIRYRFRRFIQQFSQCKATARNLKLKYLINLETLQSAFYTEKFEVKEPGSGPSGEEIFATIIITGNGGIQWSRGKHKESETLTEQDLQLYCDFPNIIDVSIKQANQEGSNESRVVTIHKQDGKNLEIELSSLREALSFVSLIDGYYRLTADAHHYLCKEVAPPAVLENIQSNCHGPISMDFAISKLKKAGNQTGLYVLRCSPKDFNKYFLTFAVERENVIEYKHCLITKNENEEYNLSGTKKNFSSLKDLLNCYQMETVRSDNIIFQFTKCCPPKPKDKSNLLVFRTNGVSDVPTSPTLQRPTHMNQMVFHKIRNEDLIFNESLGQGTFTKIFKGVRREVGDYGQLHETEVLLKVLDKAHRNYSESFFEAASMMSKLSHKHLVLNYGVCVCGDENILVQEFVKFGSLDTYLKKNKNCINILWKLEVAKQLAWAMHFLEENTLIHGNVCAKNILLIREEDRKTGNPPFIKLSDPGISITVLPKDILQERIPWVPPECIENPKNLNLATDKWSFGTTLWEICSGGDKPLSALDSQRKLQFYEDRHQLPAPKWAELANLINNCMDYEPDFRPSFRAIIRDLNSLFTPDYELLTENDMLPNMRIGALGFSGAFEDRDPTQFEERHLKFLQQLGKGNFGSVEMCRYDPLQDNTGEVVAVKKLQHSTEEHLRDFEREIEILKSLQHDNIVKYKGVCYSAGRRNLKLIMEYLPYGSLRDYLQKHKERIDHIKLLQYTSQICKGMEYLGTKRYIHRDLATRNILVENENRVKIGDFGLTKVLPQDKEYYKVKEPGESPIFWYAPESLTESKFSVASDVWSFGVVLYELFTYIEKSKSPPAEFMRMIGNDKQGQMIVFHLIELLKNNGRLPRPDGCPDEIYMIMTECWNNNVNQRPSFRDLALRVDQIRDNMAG
test: Inhibition of recombinant JAK2 using poly(Glu,Ala,Tyr) as substrate after 2 hrs by luminescence assay
measure_name: IC50 (nM)
// units = nM; emit number, no label

CN1C/C=C/CCOc2cccc(c2)-c2ccnc(n2)Nc2cc(N)cc(c2)C1 : 50
COCCOc1ccc2cc1CN(C)C/C=C/CCOc1cccc(c1)-c1ccnc(n1)N2 : 62
CN1C/C=C/CCOc2cccc(c2)-c2ccnc(n2)Nc2ccc(Cl)c(c2)C1 : 82

Given the compound `CN1C/C=C/CCOc2cccc(c2)-c2ccnc(n2)Nc2ccc(OC(F)(F)F)c(c2)C1` , what is its reported IC50?
150

Consider the compound `C1=C/CN(C2CC2)Cc2cccc(c2)Nc2nccc(n2)-c2cccc(c2)OCC/1` and give its measured IC50.
90

Quick one: IC50 of `CN1C/C=C/CCOc2cccc(c2)-c2ccnc(n2)Nc2ccc(OCCN3CCCCC3)c(c2)C1` ?
62

What does the data say about its IC50? Entry: `CN1C/C=C/CCOc2cc(F)cc(c2)-c2ccnc(n2)Nc2cccc(c2)C1`
160

# query: IC50 of entry `CN1C/C=C/CCOc2cccc(c2)-c2ccnc(n2)Nc2ccc(OCCN3CCCC3)c(c2)C1`
56
